We begin with a simple list: items and their reported Percent Effect.
Test system: Wolbachia pipientis
experimental protocol: Anti-Wolbachia Cell-Based Screen
Assay type: functional
Design: scale not given: in the data most compounds retested in dose-response had high values
experimental conditions: 5 µM
Screen size: about 48,000 compounds; about 13,000 (27%) showed an effect of 50% or more. The list shows a part of the results.
Field format: number, assumed %, no unit text.

CC(=O)N1CCc2c(nc(N(C)C)nc2NC(C)Cc2cccs2)C1 (stereo not drawn) ... 16.87

### Prompt Please report the recorded Percent Effect for CN(Cc1ncnn1C)C(=O)c1ccccc1NCc1ccccc1 .
### Response -8.23

### Prompt Please report the recorded Percent Effect for CN(CC1(C)COC1)C(=O)c1cc(-c2ccn(C)n2)nc2ccccc12 .
### Response 106.6

Measured values drawn from ChEMBL document CHEMBL3988442 for this set.
